System: Pseudoperonospora cubensis
Test: Fungicidal activity against Pseudoperonospora cubensis assessed as cucumber downy mildew disease control at 7.8 ppm foliar application 24 hr before inoculation onto the adaxial(treated) surface of leaf by preventive manner
Format: functional
measured.attribute: Activity
Kindly report the value followed by its unit.

Worked examples follow.
CNC(=O)C(OC)c1ccccc1CO/N=C(/SC)c1ccc(OC)cc1 (racemic) : 99%
CNC(=O)C(OC)c1ccccc1CO/N=C(\C)c1ccc(C)c(C)c1 (racemic) : 90%
CCC/C(=N\OCc1ccccc1C(OC)C(=O)NC)c1ccc(Cl)cc1 (racemic) : 90%

Any idea what its Activity is? The molecule is CNC(=O)C(OC)c1ccccc1CO/N=C(\C)c1ccc(Cl)c(Cl)c1 (racemic)
90%

Any idea what its Activity is? The molecule is CC/C(=N\OCc1ccccc1C(OC)C(=O)NC)c1ccc(Cl)cc1 (racemic)
90%

---

System: Pseudoperonospora cubensis
Assay: Fungicidal activity against Pseudoperonospora cubensis assessed as cucumber downy mildew disease control at 125 ppm foliar application 24 hr after inoculation by curative manner
Assay type: functional
# reported Activity; entries follow
Kindly answer with a numeric value in %, unit omitted.

Worked examples follow.
CNC(=O)C(OC)c1ccccc1CO/N=C(/SC)c1ccc(Cl)cc1 (racemic) : 87
CNC(=O)C(OC)c1ccccc1CO/N=C(\C)c1ccc(OC)cc1 (racemic) : 75
CNC(=O)C(OC)c1ccccc1CO/N=C(\C)c1ccc(OC(F)F)cc1 (racemic) : 75
CNC(=O)C(OC)c1ccccc1CO/N=C(/SC)c1ccc(OC(F)F)cc1 (racemic) : 78
CNC(=O)C(OC)c1ccccc1CO/N=C(\C)c1ccc(Cl)cc1 (racemic) : 70
CNC(=O)C(OC)c1ccccc1CO/N=C(/SC)c1ccc(OC)cc1 (racemic) : 95
CNC(=O)C(OC)c1ccccc1CO/N=C(\C)c1ccc(C(F)(F)F)cc1 (racemic) : 75

Alright, here's another compound for you.
Item: CNC(=O)C(OC)c1ccccc1CO/N=C(/SC)c1ccc(C(F)(F)F)cc1 (racemic) Test system: Pseudoperonospora cubensis Read-out: Activity Value: ?
95
